# System: CEM cells HIV-1 protection, formazan growth assay
# protocol_text: NCI AIDS Antiviral Assay
# condition_description: measured here: growth of uninfected CEM cells
pIC50: −log10 of the molar value.
value_type: pIC50

• CC1=C(C(=O)Nc2cccc3c2C(=O)NC3=O)CC(C(=O)Nc2cccc3c2C(=O)NC3=O)=C(C)N1 = < 3.70
• CCOC(=O)c1c(SC(=O)c2ccc(C(C)(C)C)cc2)n(-c2ccccc2)c(=S)n(-c2ccccc2)c1=O = 4.56
• O=C1OC(CS(=O)(=O)c2ccccc2)CC1O (stereo not given) = < 3.70
• CCc1c(O)cc(=O)oc1-c1ccc(OC)c(OC)c1 = < 3.70
• CN1C(=O)C2(C#N)C3(CCCC3)C2(C#N)C1=O (stereo not given) = < 4.36
• N#C/C(=C\NC(=S)Nc1ccc(S(=O)(=O)Nc2nccs2)cc1)C(=O)c1ccc2ccccc2c1 = 4.44
• COC(=O)c1cc(CC2Cc3cc4c(cc3C2=O)CCC4)cc2c1CCC2 (stereo not given) = < 3.70
• CC(C)(C)N1C(=O)N=[N+](/C(=C(\c2ccccc2)n2nc([O-])n(C(C)(C)C)c2=O)c2ccccc2)C1=O = < 4.00
• CS(=O)(=O)Nc1ccc2oc(=O)c3ccccc3c2c1 = 4.62
• C/C(CC(C)C)=N/Nc1nc(C)cc(=O)[nH]1 = < 3.70
